Entries and their measured IC50 follow.
Test system: HCC1569 cells
assay remarks: CellTiterGlo (CTG) cell viability, 120 h, HCC1569, single agent or with 10 nM Paclitaxel
Type: cell-based
measurement context: Homo sapiens, HCC1569, read-out: HCC1569 CTG 120 h IC50 nM + Paclitaxel 10 nM N2, in the presence of 10 nM Paclitaxel, N2
Answer with a number only, understood to be in nM.

>>> result_number("CNCC#Cc1ccc(OCCCc2sc(N(C)c3cc(C)c(Nc4nc5ccccc5s4)nn3)nc2C(=O)O)c(F)c1 [P7]")
0.429

Here's the next entry for you.
Input: Can you look up the measured IC50 of Cc1cc(N(C)c2nc(C(=O)O)c(CCCOc3ccc(C#CCN(C)C)cc3F)s2)nnc1Nc1nc2ccccc2s1 [P2] for me?
Output: 0.096

----------
assay remarks: ADC stability study: % aggregates by SEC after incubation at 37° C. for 168 h
Assay type: physicochemical
# label = MET if Stab w1 +37° C. % Agg (by SEC) < 6% else NOT MET

See these solved cases before continuing.
>>> qualitative_label("Cc1cc(N(C)c2nc(C(=O)[O-])c(CCCOc3ccc(C#CC(C)[N+](C)(C)Cc4ccc(NC(=O)[C@H](CCCNC(N)=O)NC(=O)[C@@H](NC(=O)CCOCCN5C(=O)CC(C)C5=O)C(C)C)cc4)cc3F)s2)nnc1Nc1nc2ccccc2s1 (stereo partly shown) [Ab C - L9A-P11]")
"MET"
>>> qualitative_label("C=C(C)CCCC[C@](C)(NC(=O)[C@@](C)(NC(=O)CCOCCN1C(=O)CC(C)C1=O)C(C)C)C(=O)Nc1ccc(CC(C)(C)CC#Cc2ccc(OCCCC3=C(C(C)=O)N=C(N4CCCc5c4nnc(Oc4nc6ccccc6o4)c5C)C3)c(C)c2)c(S(=O)(=O)O)c1 (stereo partly shown) [Ab D - L27A-P1]")
"NOT MET"

Input: For this compound, is Stab w1 +37° C. % Agg (by SEC) lower than 6%? CC(=O)C1=C(CCCOc2ccc(C#CCC(C)(C)Cc3ccc(NC(=O)[C@H](CCCNC(N)=O)NC(=O)[C@@H](NC(=O)CCOCCN4C(=O)CC(C)C4=O)C(C)C)cc3)cc2C)CC(C2CCCC3C2=NN=C(NC2=Nc4ccccc4C2)C3C)=C1 (stereo partly shown) [Ab D - L9A-P1]
Output: NOT MET

Input: For this compound, is Stab w1 +37° C. % Agg (by SEC) lower than 6%? Cc1cc(N(C)c2nc(C(=O)O)c(CCCOc3ccc(C#CCN(C)C(=O)OCc4ccc(NC(=O)[C@H](C)NC(=O)[C@@H](NC(=O)CCOCCN5C(=O)CC(C)C5=O)C(C)C)cc4CC[C@@H]4O[C@H](C(=O)O)[C@@H](O)[C@H](O)[C@H]4O)cc3F)s2)nnc1Nc1nc2ccccc2s1 (stereo partly shown) [Ab C -L106C-P7]
Output: NOT MET

Input: For this compound, is Stab w1 +37° C. % Agg (by SEC) lower than 6%? C=C(C)CCCC[C@](C)(CC(=C)[C@@](C)(CC(=C)CCCCCC1C(=C)CC(C)C1=C)C(C)C)C(=C)Cc1ccc(CC(C)(C)CCC[C@]23C[C@]4(C)C[C@](C)(C2)C[C@@](CC2C=CC(c5ccc(C6CCCc7c6ccc(CC6=Cc8ccccc8C6)c7C)cc5C(=C)C)=C2C)(C4)C3)cc1 (stereo partly shown) [Ab C - L9A-P27]
Output: NOT MET

----------
assay remarks: ADC stability study: % aggregates by SEC after incubation at 37° C. for 168 h
Type: physicochemical
recorded endpoint: Stab w1 +37° C. % Agg (by SEC) (%)
Answer with a number only, understood to be in %.

>>> result_number("CC(=O)CCCC[C@](C)(CC(=O)[C@@](C)(CC(=O)CCCCCC1C(=O)CC(C)C1=O)C(C)C)C(=O)Cc1ccc(CC(C)(C)CC#Cc2ccc(CCCCC3=C(C(C)=O)C=C(C4CCCc5c4ccc(CC4=Cc6ccccc6C4)c5C)C3)cc2)cc1 (stereo partly shown)")
15

Input: Can you look up the measured Stab w1 +37° C. % Agg (by SEC) of Cc1cc(N(CCCO)C2=NC(C(=O)O)=C(CCCOc3ccc(C#CCN(C)C(=O)OCc4ccc(NC(=O)[C@](C)(CCCNC(N)=O)NC(=O)[C@@H](NC(=O)CCOCCN5C(=O)CC(C)C5=O)C(C)C)cc4)cc3F)C2)nnc1Nc1nc2ccccc2s1 (stereo partly shown) for me?
Output: 2

Input: Can you look up the measured Stab w1 +37° C. % Agg (by SEC) of Cc1cc(N(C)c2ccc(-c3cnn(C[C@]45C[C@]6(C)C[C@](C)(C4)C[C@@](OCCN(CCCO)C(=O)OCc4ccc(NC(=O)[C@H](CCCNC(N)=O)CC(=O)[C@@H](NC(=O)CCOCCN7C(=O)CC(C)C7=O)C(C)C)cc4)(C6)C5)c3C)c(C(=O)O)n2)nnc1Nc1nc2ccccc2s1 (mixture of isomers) for me?
Output: 3

Input: Can you look up the measured Stab w1 +37° C. % Agg (by SEC) of Cc1c(NC2Nc3ccccc3S2)nnc2c1CCCN2c1nc(C(=O)[O-])c(CCCOc2ccc(C#CC[N+]3(Cc4ccc(NC(=O)[C@H](CCCNC(N)=O)NC(=O)[C@@H](NC(=O)CCCCCN5C(=O)CC(C)C5=O)C(C)C)cc4)CCCCC3)cc2F)s1 (stereo partly shown) for me?
Output: 3

----------
Tested on: H1650 cells
assay remarks: CellTiterGlo (CTG) cell viability, 3D, 120 h, H1650 (Example 8)
Format: cell-based, human
measurement context: H1650 3D, mean of n1 and n2, read-out: H1650 3D CTG IC50 Mean of n1 and n2
pIC50: −log10 of the molar value.
Respond with class 1 for pIC50 values of 9 and above, class 0 for values below.

Input: Is pIC50 for Cc1c(Nc2nc3ccccc3s2)nnc2c1CCCN2c1nc(C(=O)[O-])c(CCCOc2ccc(C#CC(C)N3CC[N+](C)(Cc4ccc(NC(=O)[C@H](CCCNC(N)=O)NC(=O)[C@@H](NC(=O)CCOCCN5C(=O)CC(C)C5=O)C(C)C)cc4)CC3)cc2F)s1 (some centres unmarked) at or above 9?
Output: class 1

Input: Is pIC50 for Cc1c(Nc2nc3ccccc3s2)nnc2c1CCCN2c1nc(C(=O)[O-])c(CCCOc2ccc(C#CC[N+](C)(C)Cc3ccc(NC(=O)[C@H](CCCNC(N)=O)NC(=O)[C@@H](NC(=O)CCOCCN4C(=O)CC(C)C4=O)C(C)C)cc3)cc2F)[nH]1 (some centres unmarked) [Ab C - L9A-P1] at or above 9?
Output: class 1

Input: Is pIC50 for Cc1c(Nc2nc3ccccc3s2)nnc2c1CCCN2c1nc(C(=O)O)c(CCCOc2ccc(C#CCN3CCN(C(=O)OCc4ccc(NC(=O)[C@H](CCCNC(N)=O)NC(=O)[C@@H](NC(=O)CCOCCN5C(=O)CC(C)C5=O)C(C)C)cc4)CC3)cc2F)s1 (some centres unmarked) at or above 9?
Output: class 0

Input: Is pIC50 for Cc1cc(N(C)c2nc(C(=O)[O-])c(CCCOc3ccc(C#CC(C)[N+](C)(C)Cc4ccc(NC(=O)[C@H](CCCNC(N)=O)NC(=O)[C@@H](NC(=O)CCOCCN5C(=O)CC(C)C5=O)C(C)C)cc4)cc3F)s2)nnc1Nc1nc2ccccc2s1 (some centres unmarked) at or above 9?
Output: class 1

Input: Is pIC50 for Cc1c(Nc2nc3ccccc3s2)nnc2c1CCCN2c1nc(C(=O)[O-])c(CCCOc2ccc(C#CCN3CC[N+](C)(Cc4ccc(NC(=O)[C@H](CCCNC(N)=O)NC(=O)[C@@H](NC(=O)CCOCCN5C(=O)CC(C)C5=O)C(C)C)cc4)CC3)cc2F)s1 (some centres unmarked) at or above 9?
Output: class 1

----------
System: H1650 cells
assay remarks: CellTiterGlo (CTG) cell viability, 3D, 120 h, H1650 (Example 8)
Type: cell-based, human
measurement context: Homo sapiens, NCI-H1650, H1650 3D, mean of n1 and n2, read-out: H1650 3D CTG IC50 Mean of n1 and n2
pIC50: −log10 of the molar value.
Respond with MET for pIC50 values of 9 and above, NOT MET for values below.

See these solved cases before continuing.
>>> qualitative_label("Cc1c(Nc2nc3ccccc3s2)nnc2c1CCCN2c1ccc(-c2cnn(CC34CC5(C)CC(C)(C3)CC(OCCN3CCCC3)(C5)C4)c2C)c(CO)n1")
"NOT MET"
>>> qualitative_label("Cc1c(Nc2nc3ccccc3s2)nnc2c1CCCN2c1ccc(-c2cnn(CC34CC5(C)CC(C)(C3)CC(OCCN3CCCCC3)(C5)C4)c2C)c(C(=O)O)n1")
"MET"

Input: Is pIC50 for `Cc1c(Nc2nc3ccccc3s2)nnc2c1CCCN2c1ccc(-c2cnn(CC34CC5(C)CC(C)(C3)CC(OCCN(C)CC(=O)O)(C5)C4)c2C)c(C(=O)O)n1` at or above 9?
Output: NOT MET

Input: Is pIC50 for `Cc1c(Nc2nc3ccccc3s2)nnc2c1CCCN2c1ccc(-c2cnn(CC34CC5(C)CC(C)(C3)CC(OCCN3CCCC3)(C5)C4)c2C)c(C(=O)NC(C)C)n1` at or above 9?
Output: NOT MET

Input: Is pIC50 for `Cc1c(Nc2nc3ccccc3s2)nnc2c1CCCN2c1ccc(-c2cnn(CC34CC5(C)CC(C)(C3)CC(OCCNCCCO)(C5)C4)c2C)c(C(=O)O)n1` at or above 9?
Output: NOT MET

Input: Is pIC50 for `Cc1c(Nc2nc3ccccc3s2)nnc2c1CCCN2c1ccc(-c2cnn(C[C@]34C[C@]5(C)C[C@](C)(C3)C[C@@](OCCNCC(CO)CO)(C5)C4)c2C)c(C(=O)O)n1` at or above 9?
Output: NOT MET

Input: Is pIC50 for `Cc1c(Nc2nc3ccccc3s2)nnc2c1CCCN2c1ccc(-c2cnn(CC34CC5(C)CC(C)(C3)CC(OCCNCCC(=O)O)(C5)C4)c2C)c(C(=O)O)n1` at or above 9?
Output: NOT MET

Input: Is pIC50 for `Cc1c(Nc2nc3ccccc3s2)nnc2c1CCCN2c1ccc(-c2cnn(CC34CC5(C)CC(C)(C3)CC(OCCN3CCN(C)CC3)(C5)C4)c2C)c(C(=O)O)n1` at or above 9?
Output: MET

Just for reference, patent US20240269304A1 is where these values come from.
